- Test system: nitrification of ammonium nitrogen
- ASSAY: Suppression of nitrification of ammonium nitrogen in soil
- CONDITION_SET: 10 ppm, 27° C.
Consider the following compounds; for each one, report its % NH4-N Remaining After 2 Weeks Incubation.
Give just the numeric value; % need not be written.

response.value for Cc1cc(C)n2nc(S(=O)(=O)Nc3c(Cl)cc(F)cc3Cl)nc2n1 (field: % NH4-N Remaining After 2 Weeks Incubation) = 95

The reported % NH4-N Remaining After 2 Weeks Incubation of the compound Cc1cc(C)n2nc(S(=O)(=O)Nc3cc(C(F)(F)F)ccc3S(=O)(=O)N(C)C)nc2n1 was 66

compound Cc1cc(C)n2nc(S(=O)(=O)Nc3c(C)cccc3Cl)nc2n1 , % NH4-N Remaining After 2 Weeks Incubation observed: 91

Memo: Cc1cc(C)n2nc(S(=O)(=O)Nc3ccccc3S(=O)(=O)c3ccccc3)nc2n1 , reported % NH4-N Remaining After 2 Weeks Incubation: 100

Form: compound = Cc1cc(C)n2nc(S(=O)(=O)Nc3cccc(Cl)c3)nc2n1 ; % NH4-N Remaining After 2 Weeks Incubation = 80

In plain terms, Cc1cc(C)n2nc(S(=O)(=O)Nc3ccc(Cl)cc3C(=O)N(C)C)nc2n1 has a documented % NH4-N Remaining After 2 Weeks Incubation of 91

The measured % NH4-N Remaining After 2 Weeks Incubation associated with Cc1cc(C)n2nc(S(=O)(=O)Nc3ccccc3[S+]([O-])C(F)(F)C(F)F)nc2n1 (stereo not drawn) reads 58

Item: CC(C)c1ccn2nc(S(=O)(=O)Nc3c(Cl)cccc3Cl)nc2n1 | % NH4-N Remaining After 2 Weeks Incubation: 66

Query Cc1cc(C)n2nc(S(=O)(=O)Nc3ccccc3C#N)nc2n1 yields % NH4-N Remaining After 2 Weeks Incubation of 77

response.value for Cc1cc(C)n2nc(S(=O)(=O)Nc3nc4c(Cl)cccc4s3)nc2n1 (field: % NH4-N Remaining After 2 Weeks Incubation) = 78

Briefly, % NH4-N Remaining After 2 Weeks Incubation measured for CSc1ccccc1NS(=O)(=O)c1nc2nc(C)cc(C)n2n1 : 88

Query Cc1cc(C)n2nc(S(=O)(=O)Nc3ccccc3S(C)(=O)=O)nc2n1 yields % NH4-N Remaining After 2 Weeks Incubation of 94

// Cc1cc(C)n2nc(S(=O)(=O)Nc3c(Cl)cc(Cl)cc3Cl)nc2n1 : % NH4-N Remaining After 2 Weeks Incubation value = 78

// sample Cc1nc2nc(S(=O)(=O)Nc3c(Cl)cccc3Cl)nn2c2c1CCC2 , its % NH4-N Remaining After 2 Weeks Incubation was 90

Value of measured % NH4-N Remaining After 2 Weeks Incubation for the entry Cc1cc(C)n2nc(S(=O)(=O)Nc3ccccc3C)nc2n1 : 78

In plain terms, Cc1cc(C)n2nc(S(=O)(=O)Nc3nccs3)nc2n1 has a documented % NH4-N Remaining After 2 Weeks Incubation of 48

The compound Cc1cc(C)n2nc(S(=O)(=O)Nc3c(C)cccc3C(=O)N(C)C)nc2n1 showed % NH4-N Remaining After 2 Weeks Incubation equal to 75

Per the record, Cc1cc(C)n2nc(S(=O)(=O)Nc3ccccc3O)nc2n1 has % NH4-N Remaining After 2 Weeks Incubation of 25
